The reader will find reported AUC0-t values listed item by item below.
# assay.overview: Multi-component pharmacokinetics in rat plasma after oral administration of RB, RPA or RB-RPA extracts (UPLC-HRMS, non-compartmental analysis)
# Assay type: in vivo, Sprague-Dawley rats
# test.conditions: rat plasma, oral RB-RPA mixed extracts (45 g-herb/kg RB + 45 g-herb/kg RPA), mean ± SD, n = 7

- compound: "C[C@H]1O[C@@H](O[C@@H]2CC[C@@]3(C)[C@@H](CC[C@]4(C)[C@@H]3C=C[C@]35OC[C@@]6(CCC(C)(C)C[C@H]63)[C@@H](O)C[C@]54C)[C@@]2(C)CO)[C@H](O)[C@@H](O)[C@H]1O [Prosaikogenin G]"
  AUC0-t [ng·h/mL]: 11.50
- compound: "CC1(C)CC[C@@]2(CO)C(=C3C=C[C@@H]4[C@@]5(C)CC[C@H](O)[C@@](C)(CO)[C@@H]5CC[C@@]4(C)[C@]3(C)C[C@H]2O)C1 [Saikogenin D]"
  AUC0-t [ng·h/mL]: 131.78
- compound: "C[C@H]1O[C@@H](O[C@H]2CC[C@@]3(C)[C@@H](CC[C@]4(C)[C@@H]3C=C[C@]35OC[C@@]6(CCC(C)(C)C[C@H]63)[C@@H](O)C[C@]54C)[C@]2(C)CO)[C@H](O)[C@@H](O)[C@H]1O [Prosaikogenin F]"
  AUC0-t [ng·h/mL]: 71.62
- compound: "CC1(C)CC[C@]23CO[C@@]4(C=C[C@@H]5[C@@]6(C)CC[C@H](O)[C@@](C)(CO)[C@@H]6CC[C@@]5(C)[C@]4(C)C[C@H]2O)[C@@H]3C1 [Saikogenin G]"
  AUC0-t [ng·h/mL]: 88.79
- compound: "CC(=O)OC[C@H]1O[C@@H](O[C@H]2[C@@H](O)[C@@H](C)O[C@@H](O[C@H]3CC[C@@]4(C)[C@@H](CC[C@]5(C)[C@@H]4C=CC46OCC7(CCC(C)(C)C[C@H]74)[C@@H](O)C[C@]65C)[C@]3(C)CO)[C@@H]2O)[C@H](O)[C@@H](O)[C@@H]1O (stereo partly drawn) [Acetyl-saikosaponin A]"
  AUC0-t [ng·h/mL]: 62.08
- compound: "C[C@H]1O[C@@H](O[C@H]2CC[C@@]3(C)[C@@H](CC[C@]4(C)[C@@H]3C=C[C@]35OC[C@@]6(CCC(C)(C)C[C@H]63)[C@H](O)C[C@]54C)[C@]2(C)CO)[C@H](O)[C@@H](O[C@@H]2O[C@H](CO)[C@@H](O)[C@H](O)[C@H]2O)[C@H]1O [Saikosaponin D]"
  AUC0-t [ng·h/mL]: 99.98
